- Test system: K4 kissing-loop RNA reporter;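 also: bound reporter read as fluorescence of individual clusters on recovered sequencing chips by microscopy, with normalized cluster intensities fitted with a binding model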
- method-summary: apparent KD of K4 kissing-loop reporter; higher = weaker reporter binding
- experimental-context: Eterna round: R107; input ligand: theophylline 20 uM
quantity: apparent KD of K4 kissing-loop reporter (µM)
Just the number in µM, nothing appended.

Exercise: Reported apparent KD of K4 kissing-loop reporter, sequence AUUAAUUUCAGAGGAUAUCGUGAUUUUAUUUAAUUUAUUCAUUUGUGCAGUGAUGUUGCUAAUAUUCGAGAAGGCUGAUUUAUAA [whbob_Ex_FMNB__2th224] : ____
Solution: 0.11

Exercise: Reported apparent KD of K4 kissing-loop reporter, sequence CCAAACAGUUACGAUACCAGUCUAAUAUAUUUGAUCAAAACCCUCGCCGAGUGAUGUUCGGACCCUUGGCAGCGUCUGGGACAGG [zzbtmullin] : ____
Solution: 0.414

Exercise: Reported apparent KD of K4 kissing-loop reporter, sequence UGUAUGUGAUUUGAUACCAGACCAUCUUGUGAGAAAUGAGUGAUGUUUAUUUUGGUUUGGGUCCCUUGGCAGCAAAUCGCAUACU [KL-SSTheoB24] : ____
Solution: 0.419

Exercise: Reported apparent KD of K4 kissing-loop reporter, sequence AAAUUCUUUUUUUUAUUUAACUUUUCAGAAGGAGCGUGGUAGUACACAGGUAGGUCGCUGAAUUUUGGGCUAGUGAUGUUAGUUA [whbob_SS_Arginine_A_sa113] : ____
Solution: 0.311

Exercise: Reported apparent KD of K4 kissing-loop reporter, sequence CGGAGUGAUGUUCCGUUAAUUCCUUAGUUACGAGGACCGGUACGGCCGCCACUCGAUUUUAGUUUUAUUUAUUGUUUGGAAAUUU [JR_SSTryptoA_Sub008] : ____
Solution: 0.327

Exercise: Reported apparent KD of K4 kissing-loop reporter, sequence ACGCGCGCGAGUGAUGUUCGGAGCGGCUGGCAGGAUAUGUAGCAAUGCAGAAGGGUCGUGGCGGGCGCGGCGAAAGCCGCGCCCG [#2 Exclusion - FMN A Attempt #6 (HarryS)] : ____
Solution: 0.622

Exercise: Reported apparent KD of K4 kissing-loop reporter, sequence UGGACCAAGGAGUGAUGUUCCAAAUGUGAUACCAGCCACGAAAGUGGCCCUUGGCAGCACUGCCAAAGGACGAAAGUCCGGUCCU [#SwitchBubble 10 #StaticStem #K4Early] : ____
Solution: 0.659

Exercise: Reported apparent KD of K4 kissing-loop reporter, sequence GGAACUACGACGGCCGCCACUCUGUAUCCCAACGUUAAGGUCCUAACUGCAAGUGAUGUUUGUGCGAGGACCGGGUCUCCCUUGC [theeternabot_exclusion_KL_Trp_B_30] : ____
Solution: 0.218

Exercise: Reported apparent KD of K4 kissing-loop reporter, sequence AAUGCAUAGUGAAGGAGCGCGUAUAGCAGUGAUGUUGCUUACUUAUUAUUAUAUUAAUUGACGCAGGUAGGUCGCACUUUGCAUA [JR_ExcArginiB_Sub022] : ____
Solution: 0.181

Exercise: Reported apparent KD of K4 kissing-loop reporter, sequence UGACAUUGCUCAGAUACCAGACUUGAGGAACACCCAAGUGCCAAACGUACAAUAAUAAAAGUCCCUUGGCAGCUGAGCAAUGUCU [TheoBX 14] : ____
Solution: 0.0628

Exercise: Reported apparent KD of K4 kissing-loop reporter, sequence AUAUUGGUUGAGAGUGAUGUUCCUUGUGUUCGAGGACCGGUACGGCCGCCACUCGGGUAGAAAAUAAAAGAUAUGUUUGAUUUUU [BDazzled - #12 SS Tryptophan A] : ____
Solution: 0.943

Exercise: Reported apparent KD of K4 kissing-loop reporter, sequence `AAAAUAAGCCAGUGAUGUUGGUAUCCAGAUACCAGCGACGAAAGUCGCCCUUGGCAGCUGUGGACGUACAAAAUAAGUACGUCCU` : ____
Solution: 0.266

Exercise: Reported apparent KD of K4 kissing-loop reporter, sequence `UGACUGGACUGAAGGAGCGCUGAACUCCUAGUGAUGUUAGGACAACGAGACAAAGUCUCGCGGCAGGUAGGUCGCAGUCUAGUCU` : ____
Solution: 0.145

Exercise: Reported apparent KD of K4 kissing-loop reporter, sequence UACAAACGUAGUGAUGUUACGUACUCUGAUACCAGACAACUCUAAGUCCCUUGGCAGCAGUCAUUUUGCUUAUUAUUUUCUCAAA [JR_ExcTheophyA_Sub018] : ____
Solution: 0.0985

Exercise: Reported apparent KD of K4 kissing-loop reporter, sequence UGGAGUUGACGAAAAGUCAACUCCUGAGAAGGAGCGGACGAAAGUCCAGGUAGGUCGCUCACUAGCAGUGAUGUUGCUACAUAAA [#OpenEnded 2] : ____
Solution: 0.253

Exercise: Reported apparent KD of K4 kissing-loop reporter, sequence AUCACAGUGAUGUUGUGAUAUGGUACAGAUACCAGACUAGUGCUAGUCCCUUGGCAGCUGUACUCAGCAGCACCACUAGCACUCG [Theo A Ex t6b] : ____
Solution: 0.153

Exercise: Reported apparent KD of K4 kissing-loop reporter, sequence GGGUUUGACGGAGGAUAUGCACUGAGGAGGAGAAUAUAGUGAUGUUAUAUAAGAGGAAGGAGAAGAGUAGAAGGCCGUUGGGUUU [SSFMNB.L] : ____
Solution: 0.165

Exercise: Reported apparent KD of K4 kissing-loop reporter, sequence `AAAUAGAUCAGUCACCCAGUGAUGUUGGAAGGAGCGUGCGAAAGCACAGGUAGGUCGCCAGAAUAAAAUUGGCUGAUCAAAAUAA` : ____
Solution: 0.393

Exercise: Reported apparent KD of K4 kissing-loop reporter, sequence GACUGGUUAACAGAUACCAGCCACAAGCGUUGAGGCGGCGGUAAAGUGAUGUUUUAUAAAGGCCCUUGGCAGCUGACUAGUUCGU [theeternabot_exclusion_KL_Theo_B_28] : ____
Solution: 0.381

Exercise: Reported apparent KD of K4 kissing-loop reporter, sequence CGCUGGGCGAGUGAUGUUCGCUCACGUGAUACCAGUGCCAUCCAACACCCUUGGCAGCACGCGGGCAGUGAUGUUGUCCUUGUGG [Exclusion Theophylline A GF7] : ____
Solution: 0.269

Exercise: Reported apparent KD of K4 kissing-loop reporter, sequence AGGCACGAGCAAGGAUAUCGAGUAGAGUGAUGUUCUGCCUGGGUUGGCGCGGAAGGGCCUUCCCAGCGAGAAGGUGCUCGUGCCU [#2 Same State - FMN A Attempt #10 (HarryS)] : ____
Solution: 0.615

Exercise: Reported apparent KD of K4 kissing-loop reporter, sequence CGUUCCUCUGUCGAUACCAGCUUCAGUUGGCGGCCAGUGAUGUUGGUAUCGCCGAUGCCAAGCCCUUGGCAGCGACAGGAGACCC [Usleanza] : ____
Solution: 0.095

Exercise: Reported apparent KD of K4 kissing-loop reporter, sequence UGACUGGACUGAAGGAGCGUUGAAGGAGCGUAAGGAGUGAUGUUCCAUACAGGUAGGUCGCAGCAGGUAGGUCGCAGUCUAGUCU [ArgBS 26 #DoubleAptamer #SwitchBubble] : ____
Solution: 0.171

* * *

- System: MS2 coat protein
- method-summary: apparent KD of MS2 coat protein; designed switch direction (-1 OFF switch, 1 ON switch): 1; higher = weaker reporter binding
- experimental-context: Eterna round: R95; input ligand: FMN 200 uM
I would appreciate it if you labelled entries Met when apparent KD of MS2 coat protein is 80 nM or higher, otherwise Not met.

Exercise: Item AAGAGAGAAAUACAGGAUAUGAGGAAAGGAACAUGAGGAUCACCCAUGUAAGAGAAAGGGAAAGAUCAGAAGGGUAGAGAAGAGA [JR_SS2_Sub001] (puzzle: Same State 2) with apparent KD of MS2 coat protein of 80 nM or above?
Solution: Not met

Exercise: Item ACCCAAAGUAUAUGGGAACAGGCUUUUUAACAUGAGGAUCACCCAUGUACUCGUCUUAUAAGCAGUCGAAAGACUGC [Sensor 100 - 2] (puzzle: Sensor for hsa-mir-208a) with apparent KD of MS2 coat protein of 80 nM or above?
Solution: Met

Exercise: Item AAUUAUUUACAUGAGGAUCACCCAUGUAUUAUUACAAGCUUUAUCCUCGUUUUAUUUAUUAUUAUUAUUAUUAUUAA [benbell_design1] (puzzle: Sensor for hsa-mir-208a version 2) with apparent KD of MS2 coat protein of 80 nM or above?
Solution: Met

Exercise: Item AUCAAUCUAUCUCAGGAUAUCAUGUCAAAGACAUGAGGAUCACCCAUGUACCAGGAAACUGGUUAUGAGAAGGGAGAUAGAUUGA [Mat - Same State 2 - Mod - D30] (puzzle: Same State 2) with apparent KD of MS2 coat protein of 80 nM or above?
Solution: Not met

Exercise: Item GAGUGACAUGAGGAUCACCCAUGUAGAAUAGAACAAGGAUAUGUGGAAGGCGGAGGAGAGACAGAAGGUGUUGAAG [JR_SS1_Sub057] (puzzle: Same State 1) with apparent KD of MS2 coat protein of 80 nM or above?
Solution: Not met

Exercise: Item GUGCAACCGUGUGAGGAUAUCGGUGAUCAGACAUGAGGAUCACCCAUGUCCGAAGCUCGGAUCUCCGAGAAGGCGCACAGUUGCA [Same State 2 - Mod of Erisin v.6] (puzzle: Same State 2) with apparent KD of MS2 coat protein of 80 nM or above?
Solution: Met

Exercise: Item GCAGUACACGCAGAGGAUAUGUCGGUAACGACAUGAGGAUCACCCAUGUGUACGGAAGUACUCAGACAGAAGGCUGUGUACUGCU [Same State 2 - Hyphema v.3] (puzzle: Same State 2) with apparent KD of MS2 coat protein of 80 nM or above?
Solution: Not met

Exercise: Item GACAUUCUAUCUCAGGAUAUCAUGUCAAAGACAUGAGGAUCACCCAUGUACCAGGAAACUGGUUAUGAGAAGGGAGAUAGAAUGG [Mat - Same State 2 - Mod - D47] (puzzle: Same State 2) with apparent KD of MS2 coat protein of 80 nM or above?
Solution: Met
